Listed next: entries and their corresponding log10(EC50).
# Test system: primary human fibroblasts derived from IPF patients (LL29 cells)
# Procedure Summary: Inhibition of the fibrotic process in TGF-β1-treated primary human fibroblasts from IPF patients (αSMA staining)
# Type: cell-based
# Condition Details: Fibroblast, 96 h, TGF-β1 20 ng/mL, 4 days, read-out: Inhibition of fibrosis EC50
# Source text: The above synthesized compounds were screened using primary human fibroblasts (derived from IPF patients) treated with TGF-β1 to determine their ability to inhibit the fibrotic process. […]
Measured Parameter: log10(EC50) (log10 of the value in nM)

>>> measured_number("O=C(Cc1ccccc1)Nc1cncc(-c2cc3c(-c4nc5cccnc5[nH]4)n[nH]c3cn2)c1")
3.00
>>> measured_number("COc1cncc(-c2cc3c(-c4nc5c(-c6cccc(F)c6)ccnc5[nH]4)n[nH]c3cn2)c1")
2.80
>>> measured_number("CCCC(=O)Nc1cncc(-c2cc3c(-c4nc5c(-c6ccc(C)s6)ccnc5[nH]4)n[nH]c3cn2)c1")
1.26
>>> measured_number("NC1CN(c2cncc(-c3cc4c(-c5nc6c(-c7cccc(F)c7)ccnc6[nH]5)n[nH]c4cn3)n2)C1")
3.17
>>> measured_number("O=C(Nc1cncc(-c2cc3c(-c4nc5c(-c6ccccc6F)ccnc5[nH]4)n[nH]c3cn2)c1)C1CCCC1")
2.51

----------
Listed next: entries and their corresponding pEC50.
# Test system: primary human fibroblasts derived from IPF patients (LL29 cells)
# Procedure Summary: Inhibition of the fibrotic process in TGF-β1-treated primary human fibroblasts from IPF patients (αSMA staining)
# Assay type: cell-based
# Condition Details: Fibroblast, 96 h, TGF-β1 20 ng/mL, 4 days, read-out: Inhibition of fibrosis EC50
pEC50: −log10 of the molar value.
Measured Parameter: pEC50

>>> measured_number("Fc1ccc(-c2ccnc3[nH]c(-c4n[nH]c5cnc(-c6cncnc6)cc45)nc23)cc1 [Compound 52]")
6.59
>>> measured_number("Fc1cccc(-c2ccnc3[nH]c(-c4n[nH]c5cnc(-c6cn[nH]c6)cc45)nc23)c1 [Compound 939]")
7.85
>>> measured_number("CC(C)(C)C(=O)Nc1cncc(-c2cc3c(-c4nc5c(-c6ccsc6)ccnc5[nH]4)n[nH]c3cn2)c1 [Compound 268]")
6.85
>>> measured_number("O=C(Nc1cncc(-c2cc3c(-c4nc5c(-c6ccsc6)ccnc5[nH]4)n[nH]c3cn2)c1)c1ccccc1 [Compound 271]")
7.29
>>> measured_number("Cc1ccc(-c2ccnc3[nH]c(-c4n[nH]c5cnc(-c6cncc(NC(=O)C(C)(C)C)c6)cc45)nc23)s1 [Compound 372]")
6.66
>>> measured_number("CCC(=O)Nc1cncc(-c2cc3c(-c4nc5c(-c6cccs6)ccnc5[nH]4)n[nH]c3cn2)c1 [Compound 313]")
7.41
>>> measured_number("COc1cc(F)cc(-c2ccnc3[nH]c(-c4n[nH]c5cnc(-c6cncc(NC(=O)CC(C)C)c6)cc45)nc23)c1 [Compound 1394]")
6.31
>>> measured_number("Cn1cc(-c2cc3c(-c4nc5c(-c6cccc(F)c6)ccnc5[nH]4)n[nH]c3cn2)cn1 [Compound 940]")
6.45
>>> measured_number("CN(C)Cc1cncc(-c2cc3c(-c4nc5c(-c6cccc(F)c6)ccnc5[nH]4)n[nH]c3cn2)c1 [Compound 13]")
6.13
>>> measured_number("Fc1ccc(-c2ccnc3[nH]c(-c4n[nH]c5cnc(-c6cncc(CN7CCCC7)c6)cc45)nc23)cc1 [Compound 40]")
6.46
>>> measured_number("c1cc(-c2ccoc2)c2nc(-c3n[nH]c4cnc(-c5cncc(CNCC6CCCC6)c5)cc34)[nH]c2n1 [Compound 310]")
6.19
>>> measured_number("Cc1ccncc1-c1cc2c(-c3nc4c(-c5ccsc5)ccnc4[nH]3)n[nH]c2cn1 [Compound 265]")
7.47
>>> measured_number("CC(C)(C)C(=O)Nc1cncc(-c2cc3c(-c4nc5c(-c6cccs6)ccnc5[nH]4)n[nH]c3cn2)c1 [Compound 320]")
7.60
>>> measured_number("CN(C)c1cncc(-c2cc3c(-c4nc5c(-c6cccc(F)c6)ccnc5[nH]4)n[nH]c3cn2)c1 [Compound 7]")
6.39
>>> measured_number("CC(C)CC(=O)Nc1cncc(-c2cc3c(-c4nc5c(-c6ccc(F)s6)ccnc5[nH]4)n[nH]c3cn2)c1 [Compound 340]")
6.12
>>> measured_number("CN(C)Cc1cncc(-c2cc3c(-c4nc5c(-c6cccs6)ccnc5[nH]4)n[nH]c3cn2)c1 [Compound 325]")
6.60
>>> measured_number("CC(C)Nc1cncc(-c2cc3c(-c4nc5c(-c6ccoc6)ccnc5[nH]4)n[nH]c3cn2)c1 [Compound 298]")
6.33
>>> measured_number("CN(C)c1cncc(-c2cc3c(-c4nc5c(-c6cccs6)ccnc5[nH]4)n[nH]c3cn2)c1 [Compound 319]")
7.12
>>> measured_number("O=C(Nc1cncc(-c2cc3c(-c4nc5c(N6CCCCC6)ccnc5[nH]4)n[nH]c3cn2)c1)C1CC1 [Compound 175]")
5.41
